Target: baculoviral GST-MLK1KD (Homo sapiens)
Construct: 1 μg/ml of baculoviral GST-MLK1KD; GST (N); host or cells: baculovirus expression system
Sequence (P80192 144-412 limits assumed): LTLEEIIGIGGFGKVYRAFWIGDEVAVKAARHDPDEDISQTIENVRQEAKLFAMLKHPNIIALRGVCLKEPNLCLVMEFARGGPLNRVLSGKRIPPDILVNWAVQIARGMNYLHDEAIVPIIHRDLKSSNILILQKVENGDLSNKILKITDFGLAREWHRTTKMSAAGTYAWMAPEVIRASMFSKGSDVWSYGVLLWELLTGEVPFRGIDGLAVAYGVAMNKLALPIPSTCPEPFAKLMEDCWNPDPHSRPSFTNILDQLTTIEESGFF
Assay: Mixed Lineage Kinase-1 inhibition assay (Millipore Multiscreen TCA in-plate, 32P)
Type: biochemical
Conditions: 1 uM compound; 60 μM ATP
PARAMETER MEASURED: MLK-1 Kinase % inhibition @ 1 uM (%)
Just the number in %, nothing appended.

IN: Form field: reported MLK-1 Kinase % inhibition @ 1 uM of O=C1NN=C(c2nccs2)C1=Cc1cn(Cc2ccccc2)c2ccccc12
OUT: 21

IN: Form field: reported MLK-1 Kinase % inhibition @ 1 uM of N#CCCn1cc(C=C2C(=O)NN=C2c2ccco2)c2ccccc21
OUT: 3

IN: Form field: reported MLK-1 Kinase % inhibition @ 1 uM of Cn1cc(C=C2C(=O)NN=C2c2cc3ccccc3o2)c2ccccc21
OUT: 41

IN: Form field: reported MLK-1 Kinase % inhibition @ 1 uM of O=C1NN=C(c2ccco2)C1=Cc1cn(CCOCc2ccccc2)c2ccccc12
OUT: 9

IN: Form field: reported MLK-1 Kinase % inhibition @ 1 uM of Cn1cc(C=C2C(=O)NN=C2c2nccs2)c2ccccc21
OUT: 37

IN: Form field: reported MLK-1 Kinase % inhibition @ 1 uM of O=C1NN=C(c2ccoc2)C1=Cc1c[nH]c2ccc(F)cc12
OUT: 4

IN: Form field: reported MLK-1 Kinase % inhibition @ 1 uM of O=C1NN=C(c2ccco2)C1=Cc1ncc[nH]1
OUT: −12

IN: Form field: reported MLK-1 Kinase % inhibition @ 1 uM of O=C1NN=C(c2cccs2)C1=Cc1c[nH]c2ccccc12
OUT: 15

IN: Form field: reported MLK-1 Kinase % inhibition @ 1 uM of N#CCCn1cc(C=C2C(=O)NN=C2c2ccoc2)c2ccccc21
OUT: 10

----------
Would you kindly list FGFR1 % inhibition @ 1 uM for each of these compounds?
Target: recombinant human baculovirus-expressed FGFR1 cytoplasmic domain (Homo sapiens)
Construct: recombinant human baculovirus-expressed FGFR1 cytoplasmic domain; host or cells: baculovirus expression system
Sequence (P11362 398-822 limits assumed): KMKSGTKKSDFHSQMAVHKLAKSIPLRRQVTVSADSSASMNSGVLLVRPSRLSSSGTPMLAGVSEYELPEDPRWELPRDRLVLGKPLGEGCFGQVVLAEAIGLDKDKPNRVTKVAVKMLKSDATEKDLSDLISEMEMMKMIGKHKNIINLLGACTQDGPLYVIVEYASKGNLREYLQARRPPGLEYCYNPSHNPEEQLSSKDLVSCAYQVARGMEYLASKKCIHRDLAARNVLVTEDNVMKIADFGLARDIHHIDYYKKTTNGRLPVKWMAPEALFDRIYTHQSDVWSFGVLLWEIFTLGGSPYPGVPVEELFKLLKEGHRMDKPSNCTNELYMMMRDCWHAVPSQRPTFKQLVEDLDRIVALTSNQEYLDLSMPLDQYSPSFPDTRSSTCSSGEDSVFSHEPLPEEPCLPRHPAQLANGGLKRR
Assay: FGFR1 kinase inhibition assay (ELISA-based, time-resolved fluorescence)
Assay type: biochemical
Settings: 1 uM compound; 20 μM ATP
Just the number in %, nothing appended.

IN: Form field: reported FGFR1 % inhibition @ 1 uM of Cn1cc(C=C2C(=O)NN=C2c2cc3ccccc3o2)c2ccccc21 [Compound 59]
OUT: 29

IN: Form field: reported FGFR1 % inhibition @ 1 uM of Cc1cc(C)c(C=C2C(=O)NN=C2c2cc(-c3ccc(Cl)cc3)oc2C)[nH]1 [Compound 41]
OUT: 21

IN: Form field: reported FGFR1 % inhibition @ 1 uM of Cc1cc(C)c(C=C2C(=O)NN=C2c2cccnc2)[nH]1 [Compound 10]
OUT: 14

IN: Form field: reported FGFR1 % inhibition @ 1 uM of Cc1cc(C)c(C=C2C(=O)NN=C2c2c(C)coc2C)[nH]1 [Compound 27]
OUT: 36

IN: Form field: reported FGFR1 % inhibition @ 1 uM of CC(C)Cn1cc(C=C2C(=O)NN=C2c2nccs2)c2ccccc21 [Compound 73]
OUT: 19

IN: Form field: reported FGFR1 % inhibition @ 1 uM of Cc1cc(C)c(C=C2C(=O)NN=C2c2ccncc2)[nH]1 [Compound 3]
OUT: 29

IN: Form field: reported FGFR1 % inhibition @ 1 uM of O=C1NN=C(c2nccs2)C1=Cc1cn(CCOCc2ccccc2)c2ccccc12 [Compound 72]
OUT: 29

IN: Form field: reported FGFR1 % inhibition @ 1 uM of O=C1NN=C(c2cccs2)C1=Cc1cn(Cc2ccccc2)c2ccccc12 [Compound 75]
OUT: 26

IN: Form field: reported FGFR1 % inhibition @ 1 uM of O=C1NN=C(c2ccoc2)C1=CC=C(c1ccccc1)c1ccccc1 [Compound 4]
OUT: 20

IN: Form field: reported FGFR1 % inhibition @ 1 uM of COc1ccc2[nH]cc(C=C3C(=O)NN=C3c3ccco3)c2c1 [Compound 51]
OUT: 9

IN: Form field: reported FGFR1 % inhibition @ 1 uM of Cc1[nH]c(C=C2C(=O)NN=C2c2ccoc2)c(Br)c1Br [Compound 8]
OUT: 24

IN: Form field: reported FGFR1 % inhibition @ 1 uM of COc1ccc2[nH]cc(C=C3C(=O)NN=C3c3ccoc3)c2c1 [Compound 11]
OUT: 24

IN: Form field: reported FGFR1 % inhibition @ 1 uM of O=C1NN=C(c2cccs2)C1=Cc1c[nH]c2ccccc12 [Compound 62]
OUT: 37

IN: Form field: reported FGFR1 % inhibition @ 1 uM of Cc1cc(C)c(C=C2C(=O)NN=C2c2ccn(C)c2)[nH]1 [Compound 23]
OUT: 31

IN: Form field: reported FGFR1 % inhibition @ 1 uM of O=C1NN=C(c2ccoc2)C1=Cc1ccc[nH]1 [Compound 12]
OUT: 39

IN: Form field: reported FGFR1 % inhibition @ 1 uM of Cn1cc(C=C2C(=O)NN=C2c2cccs2)c2ccccc21 [Compound 63]
OUT: 38

// data source = patent US6831075B2
